I'd be grateful if you could share measured IC50 for these entries.
- Test system: colon (HT-29)
- assayProcedure: Cytotoxic assay (sulforhodamine B), colon
- Type: cell-based
- assaySetup: Homo sapiens, 48 h
Numbers only, in µM.

compound	measuredResult
COc1ccc(-c2nc(C3=NC(=Cc4ccccc4)C(=O)O3)cc3c2[nH]c2ccccc23)cc1 [Compound 11]	67.9

Could you share which IC50 value was measured for COc1cccc2c1C(=O)c1c(O)c3c(c(O)c1C2=O)C[C@@](O)(C(=O)CO)C[C@@H]3O[C@H]1C[C@H](N)[C@H](O)[C@H](C)O1 [Doxorubicin, reference compound] ?
0.18

###

- Test system: prostate (PC-3)
- assayProcedure: Cytotoxic assay (sulforhodamine B), prostate
- Assay type: cell-based, human
- assaySetup: Homo sapiens; 48 h, sulforhodamine B assay
assayEndpoint: IC50 (µM)
Give bare numbers, in µM.

See these solved cases before continuing.
compound	target	IC50 [µM]
COc1ccc(-c2nc(C3=NC(=Cc4cccc([N+](=O)[O-])c4)C(=O)O3)cc3c2[nH]c2ccccc23)cc1	prostate (PC-3)	5.28
COc1cccc2c1C(=O)c1c(O)c3c(c(O)c1C2=O)C[C@@](O)(C(=O)CO)C[C@@H]3O[C@H]1C[C@H](N)[C@H](O)[C@H](C)O1 [Doxorubicin, reference compound]	prostate (PC-3)	0.05

Next, consider the following compound.
Param readout= IC50; system= prostate (PC-3); entry= COc1ccc(-c2nc(C3=NC(=Cc4ccccc4)C(=O)O3)cc3c2[nH]c2ccccc23)cc1 ; returns value.
1.5

###

- Tested on: ovarian (OVCAR-03)
- assayProcedure: Cytotoxic assay (sulforhodamine B), ovarian
- Assay type: cell-based, human
- assaySetup: Homo sapiens; 48 h, sulforhodamine B assay
assayEndpoint: pIC50
Numbers only, as −log10 of the molar value.

molecule	pIC50
COc1cccc2c1C(=O)c1c(O)c3c(c(O)c1C2=O)C[C@@](O)(C(=O)CO)C[C@@H]3O[C@H]1C[C@H](N)[C@H](O)[C@H](C)O1 [Doxorubicin, reference compound]	6.38
O=C1OC(c2cc3c([nH]c4ccccc43)c(-c3ccccc3)n2)=NC1=Cc1cccc([N+](=O)[O-])c1 [Compound 8]	4.20
COc1ccc(-c2nc(C3=NC(=Cc4cccc([N+](=O)[O-])c4)C(=O)O3)cc3c2[nH]c2ccccc23)cc1 [Compound 10]	5.66

Next molecule, pIC50 to be filled in.
Please look up its pIC50: COc1ccc(-c2nc(C3=NC(=Cc4ccccc4)C(=O)O3)cc3c2[nH]c2ccccc23)cc1 [Compound 11]
5.97

###

- Test system: colon (HT-29)
- assayProcedure: Cytotoxic assay (sulforhodamine B), colon
- Format: cell-based
- assaySetup: Homo sapiens, 48 h
assayEndpoint: IC50

Hi team, please reply with IC50 for each item in this list.
1. O=C1OC(c2cc3c([nH]c4ccccc43)c(-c3ccccc3)n2)=NC1=Cc1cccc([N+](=O)[O-])c1
2. COc1ccc(-c2nc(C3=NC(=Cc4cccc([N+](=O)[O-])c4)C(=O)O3)cc3c2[nH]c2ccccc23)cc1
3. CC(=O)Oc1ccc(-c2nc(C3=NC(=Cc4cccc([N+](=O)[O-])c4)C(=O)O3)cc3c2[nH]c2ccccc23)cc1

1: > 100 µM; 2: > 100 µM; 3: > 100 µM
